# measuredOn: POS-1 (Caenorhabditis elegans) binding to mex-3 RNA
# method: C. elegans POS-1 RNA interaction disruptors – biochemical, fluorescence polarization, cherry-picked samples, set 2, counter-screen for MEX-5 RNA-binding inhibitor project, dose response (AID 493130);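 note: POS-1 as maltose binding protein fusion made in E. coli with FITC RNA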
# measurementConditions: POS-1/mex-3 RNA fluorescence polarization, 1 h; at 10 µM (top of the series)
Inconclusive results are not listed. The source made the active and inactive calls.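 Rule for the calls: active = signal-lowering compounds whose fitted half-maximal concentration is at most ten times their highest tested dose; inconclusive = flat fit between -30 and -70%, or poor fit; inactive = flat within 30%, signal rising, or potency beyond limit.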

>  <structure>
CSCCCN1CCC(n2nccc2NC(=O)CCCc2ccccc2)CC1

>  <activity change, negative = inhibition>
inactive

$$$$
>  <structure>
CCOC(=O)C(=NC(C)C)NNc1cc(Cl)ccc1Cl

>  <activity change, negative = inhibition>
inactive

$$$$
>  <structure>
COCCNc1nnc(SCC(=O)NNC(=O)c2ccc([N+](=O)[O-])cc2)s1

>  <activity change, negative = inhibition>
inactive

$$$$
>  <structure>
O=C1N=c2ccccc2=C1c1sc(NS(=O)(=O)c2ccccc2)nc1O

>  <activity change, negative = inhibition>
inactive

$$$$
>  <structure>
Cn1ccc(=Nc2ccc(NC(=O)c3ccc(N=c4ccn(C)c5ccc([N+](=O)[O-])cc45)cc3)cc2)cc1

>  <activity change, negative = inhibition>
inactive

$$$$

====

# measuredOn: POS-1 (Caenorhabditis elegans) binding to mex-3 RNA
# method: C. elegans POS-1 RNA interaction disruptors – biochemical, fluorescence polarization, cherry-picked samples, set 2, counter-screen for MEX-5 RNA-binding inhibitor project, dose response (AID 493130);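 note: POS-1 as maltose binding protein fusion made in E. coli with FITC RNA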
# measurementConditions: POS-1/mex-3 RNA fluorescence polarization, 1 h
Records with an inconclusive call do not appear. Activity calls are given as the source filed them.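 The calls were made as follows: active = signal-lowering compounds whose fitted half-maximal concentration is at most ten times their highest tested dose; inconclusive = flat fit between -30 and -70%, or poor fit; inactive = flat within 30%, signal rising, or potency beyond limit.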
Outcome codes: True for active, False for inactive

>  <compound>
COc1ccc(N=Nc2nc3ccc(Br)cc3n2C)cc1

>  <class>
True

$$$$
>  <compound>
Nc1ccc2nc3c(=O)n(CCc4ccccc4)c(=O)[nH]c3nc2c1

>  <class>
True

$$$$
>  <compound>
O=C(N/N=C/c1c(O)n(Cc2ccccc2)c(=O)[nH]c1=O)c1ccccc1O

>  <class>
True

$$$$
>  <compound>
O=C(O)c1ccccc1NS(=O)(=O)c1cccc(-n2sc3ccccc3c2=O)c1

>  <class>
True

$$$$
>  <compound>
CCCC1C2CN(C(C)C)CC=C2C(C#N)=C(N)C1(C#N)C#N (stereo not given)

>  <class>
True

$$$$
>  <compound>
CCc1ccc[n+](-c2[nH]c(=O)sc2/C=N/NC([S-])=Nc2ccccc2)c1

>  <class>
True

$$$$
>  <compound>
Cc1ccc(N2C(=O)NC(=O)/C(=C\c3ccc([N+](=O)[O-])o3)C2=O)cc1

>  <class>
True

$$$$
>  <compound>
Cc1ccc(NC(=O)/C(C#N)=C(\N)C(Cl)(Cl)Cl)nc1

>  <class>
True

$$$$
>  <compound>
CC1(C)CC(=O)C2=C(C1)N=c1s/c(=C/c3ccc(F)c(F)c3)c(=O)n1C2c1ccc(F)cc1 (stereo not given)

>  <class>
False

$$$$
>  <compound>
O=c1nc2c(O)cccn2c2c1c(=O)[nH]c1ccccc12

>  <class>
True

$$$$
>  <compound>
Cc1cc(C(=O)NNC(=O)CCCCC(=O)NNC(=O)c2cc(C)[nH]n2)n[nH]1

>  <class>
False

$$$$
>  <compound>
O=c1ccc2cc3c([nH]c4ccc(Br)cc43)oc-2c1O

>  <class>
True

$$$$
>  <compound>
N=C1CCC(=N)c2c1c(O)c1ccccc1c2O

>  <class>
True

$$$$
>  <compound>
O=c1[nH]c(/C=C/c2cccc3ccccc23)nc2ccccc12

>  <class>
False

$$$$
>  <compound>
CCOc1ccc(N=Nc2c(=O)[nH]n3c(=O)cc(C)[nH]c23)cc1

>  <class>
False

$$$$
